Exercise: state measured IC50 for each of the compounds provided.
test system: Strain 5248; assay: Inhibition of proliferation of multi-resistant field isolates, asynchronous asexual stages, SYBR-green assay; type: cell-based, P. falciparum; settings: Plasmodium falciparum, 72 h, read-out: IC50 nM Strain 5248 mean*

{"columns": ["compound", "recorded_metric", "measured_result"],
 "data": [
  ["CCN(CC)CCCC(C)Nc1ccnc2cc(Cl)ccc12 (centres unmarked) [Chloroquine]", "IC50", "98 nM"]
]}

Kindly review the next compound as well.
Inquiry: Provide IC50, recorded with Strain 5248, of Clc1ccc2c(N3CCN(CCCN4CCN(c5ccnc6cc(Cl)ccc56)CC4)CC3)ccnc2c1 [Piperaquine]
Reply text: 33 nM

###

test system: Lab. Strain 3D7; experiment: Inhibition of proliferation, asynchronous asexual stages, SYBR-green assay, laboratory strain; type: cell-based, P. falciparum; settings: Plasmodium falciparum, 3D7, 72 h, read-out: IC50 nM Lab. Strain 3D7 mean*
Exercise: state measured IC50 for each of the molecules provided.
One number for each entry, in nM.

{"columns": ["molecule", "recorded_metric", "measured_result"],
 "data": [
  ["Clc1ccc2c(N3CCN(CCCN4CCN(c5ccnc6cc(Cl)ccc56)CC4)CC3)ccnc2c1", "IC50", 41]
]}

Kindly review the next molecule as well.
Inquiry: Find the measured IC50 of CCN(CC)CCCC(C)Nc1ccnc2cc(Cl)ccc12 (centres unmarked) and report it.
Reply text: 13

###

Exercise: state measured pIC50 for each of the compounds provided.
tested on: P. falciparum NF54 (drug-sensitive line); assay: Inhibition of proliferation of asynchronous asexual cultures (SYBR Green I based assay, 72h); format: cell-based; conditions: Plasmodium falciparum, NF54, 72 h, SYBR Green I; read-out: Malaria CI50
Give bare numbers, as −log10 of the molar value.

Below are worked cases with known answers.
{"columns": ["compound", "measured_result"],
 "data": [
  ["COc1ccc2cc1Oc1ccc(cc1)CC1c3c(cc(OC)c4c3Oc3cc5c(cc3O4)CCN(C)C5C2)CCN1CC(O)CO (stereo not drawn) [Compound 48]", 6.71],
  ["CCN(CC)CCCNC(=O)N1CCc2cc3c4cc2C1Cc1ccc(OC)c(c1)Oc1ccc(cc1)CC1c2c(cc(OC)c(c2O4)O3)CCN1C(=O)NCCCN(CC)CC (stereo not drawn) [Compound 87]", 6.36],
  ["COc1cc2c3c4c1Oc1cc5c(cc1O4)C(Cc1ccc(OCCCN(C)C)c(c1)Oc1ccc(cc1)CC3NCC2)N(C)CC5 (stereo not drawn) [Compound 116]", 6.58],
  ["COc1ccc2cc1Oc1ccc(cc1)CC1c3c(cc(OC)c4c3Oc3cc5c(cc3O4)CCN(C)C5C2)CCN1CCCN(C)C (stereo not drawn) [Compound 46]", 6.77]
]}

// each listed compound needs a value for pIC50
1. COc1ccc2cc1Oc1ccc(cc1)CC1c3c(cc(OC)c4c3Oc3cc5c(cc3O4)CCN(C)C5C2)CCN1CCOCCOCCO (stereo not drawn) [Compound 42]
2. COc1cc2c3c4c1Oc1cc5c(cc1O4)C(Cc1ccc(OCCN(C)C)c(c1)Oc1ccc(cc1)CC3N(C)CC2)N(C)CC5 (stereo not drawn) [Compound 82]

Reply text:
1: 6.36; 2: 6.59

// each listed compound needs a value for pIC50
1. COc1cc2c3c4c1Oc1cc5c(cc1O4)C(Cc1ccc(OC4CCCN(C)CC4)c(c1)Oc1ccc(cc1)CC3N(C)CC2)N(C)CC5 (stereo not drawn) [Compound 74]
2. COc1ccc2cc1Oc1ccc(cc1)CC1c3c(cc(OC)c4c3Oc3cc5c(cc3O4)CCN(C(=O)NCc3ccncc3)C5C2)CCN1C (stereo not drawn) [Compound 31]
3. COc1ccc2cc1Oc1ccc(cc1)CC1c3c(cc(OC)c4c3Oc3cc5c(cc3O4)CCN(C(=O)Nc3cccnc3)C5C2)CCN1C (stereo not drawn) [Compound 27]

Reply text:
1: 6.53; 2: 6.82; 3: 6.42
